Assay: MTT assay, cytotoxicity against normal HEK293 cells
Assay type: cell-based, human
Conditions: human, HEK293 cells

>  <molecule>
COc1ccc(C=NNC(=O)COc2ccc(C=NNC(=O)C(C)c3ccc(CC(C)C)cc3)cc2)cc1OC (stereo not drawn)

>  <outputUnit>
%

>  <viability at 48 h, 100 μM>
24.9

$$$$
>  <molecule>
COc1ccc(C=NNC(=O)COc2ccc(C=NNC(=O)C(C)c3ccc(CC(C)C)cc3)cc2)c(OC)c1 (stereo not drawn)

>  <outputUnit>
%

>  <viability at 48 h, 100 μM>
69.9

$$$$
>  <molecule>
CCN(CC)c1ccc(C=NNC(=O)COc2ccc(C=NNC(=O)C(C)c3ccc(CC(C)C)cc3)cc2)cc1 (stereo not drawn)

>  <outputUnit>
%

>  <viability at 48 h, 100 μM>
35.8

$$$$
>  <molecule>
CC(C)Cc1ccc(C(C)C(=O)NN=Cc2ccc(OCC(=O)NN=Cc3cccc4ccccc34)cc2)cc1 (stereo not drawn)

>  <outputUnit>
%

>  <viability at 48 h, 100 μM>
47.3

$$$$
>  <molecule>
CC(C)Cc1ccc(C(C)C(=O)NN=Cc2ccc(OCC(=O)NN=Cc3ccc(F)cc3)cc2)cc1 (stereo not drawn)

>  <outputUnit>
%

>  <viability at 48 h, 100 μM>
19.7

$$$$
>  <molecule>
CC(C)Cc1ccc(C(C)C(=O)NN=Cc2ccc(OCC(=O)NN=Cc3ccc(O)cc3O)cc2)cc1 (stereo not drawn)

>  <outputUnit>
%

>  <viability at 48 h, 100 μM>
62.1

$$$$

* * *

Test: MTT assay, cytotoxicity against normal HEK293 cells
Assay type: cell-based, human
Conditions: human, HEK293 cells

>  <molecule>
CC(C)Cc1ccc(C(C)C(=O)NN=Cc2ccc(OCC(=O)NN=Cc3cccc4ccccc34)cc2)cc1 (centres unmarked) [5t]

>  <viability at 48 h, 80 μM>
51%

$$$$
>  <molecule>
CC(C)Cc1ccc(C(C)C(=O)NN=Cc2ccc(OCC(=O)NN=Cc3ccc(Cl)cc3Cl)cc2)cc1 (centres unmarked) [5h]

>  <viability at 48 h, 80 μM>
69.1%

$$$$
>  <molecule>
COc1ccc(C=NNC(=O)COc2ccc(C=NNC(=O)C(C)c3ccc(CC(C)C)cc3)cc2)cc1O (centres unmarked) [5n]

>  <viability at 48 h, 80 μM>
24.8%

$$$$
>  <molecule>
COc1ccc(C=NNC(=O)COc2ccc(C=NNC(=O)C(C)c3ccc(CC(C)C)cc3)cc2)cc1OC (centres unmarked) [5l]

>  <viability at 48 h, 80 μM>
25.9%

$$$$
>  <molecule>
CC(C)Cc1ccc(C(C)C(=O)NN=Cc2ccc(OCC(=O)NN)cc2)cc1 (centres unmarked) [compound 4]

>  <viability at 48 h, 80 μM>
28.2%

$$$$
>  <molecule>
CC(C)Cc1ccc(C(C)C(=O)NN=Cc2ccc(OCC(=O)NN=Cc3ccc(O)cc3O)cc2)cc1 (centres unmarked) [5e]

>  <viability at 48 h, 80 μM>
67.9%

$$$$
>  <molecule>
CC(C)Cc1ccc(C(C)C(=O)NN=Cc2ccc(OCC(=O)NN=Cc3ccc(Br)cc3F)cc2)cc1 (centres unmarked) [5j]

>  <viability at 48 h, 80 μM>
38.4%

$$$$
>  <molecule>
COc1ccc(C=NNC(=O)COc2ccc(C=NNC(=O)C(C)c3ccc(CC(C)C)cc3)cc2)c(O)c1 (centres unmarked) [5m]

>  <viability at 48 h, 80 μM>
24.2%

$$$$
